System: PC-3
Procedure details: Antiproliferative activity against PC3 cells after 72 hrs by MTT assay
Assay type: functional, cell-based
Experimental conditions: Homo sapiens, PC-3, 72 h
Listed below: IC50 values for each entry.

- Compound: "CCOC12SN(c3ccc(S(C)(=O)=O)cc3Cl)N=C1c1ccccc1OC2(OCC)c1ccc(OC)cc1 (racemic)"
  Target or system: "PC-3"
  Bound operator: "="
  IC50, µg/mL: 3.5
- Compound: "CCOC12SN(c3ccc([N+](=O)[O-])cc3Cl)N=C1c1cc(C)ccc1OC2(OCC)c1ccc(Cl)cc1 (racemic)"
  Target or system: "PC-3"
  Bound operator: ">"
  IC50, µg/mL: 50
- Compound: "CCOC12SN(c3ccc([N+](=O)[O-])cc3Cl)N=C1c1c(OC)cc(OC)c(Cl)c1OC2(OCC)c1ccc(C)cc1 (racemic)"
  Target or system: "PC-3"
  Bound operator: "="
  IC50, µg/mL: 7.3
- Compound: "CCOC12SN(c3ccc(S(C)(=O)=O)cc3Cl)N=C1c1c(OC)cc(OC)c(Cl)c1OC2(OCC)c1ccc(Cl)cc1 (racemic)"
  Target or system: "PC-3"
  Bound operator: ">"
  IC50, µg/mL: 50
- Compound: "CCOC12SN(c3ccc(S(C)(=O)=O)cc3Cl)N=C1c1cc(C)ccc1OC2(OCC)c1ccc(OC)cc1 (racemic)"
  Target or system: "PC-3"
  Bound operator: "="
  IC50, µg/mL: 0.6
- Compound: "CCOC12SN(c3ccc([N+](=O)[O-])cc3Cl)N=C1c1c(OC)cc(OC)c(Cl)c1OC2(OCC)c1ccc(OC)cc1 (racemic)"
  Target or system: "PC-3"
  Bound operator: "="
  IC50, µg/mL: 19.2
- Compound: "CCOC12SN(c3ccc(NC(C)=O)cc3Cl)N=C1c1cc(C)ccc1OC2(OCC)c1ccc(Cl)cc1 (racemic)"
  Target or system: "PC-3"
  Bound operator: "="
  IC50, µg/mL: 2.4

====

System: HL-60
Procedure details: Antiproliferative activity against HL60 cells after 72 hrs by MTT assay
Type: functional, cell-based
Experimental conditions: Homo sapiens, HL-60, 72 h
# maps each entry to its IC50

- Compound: "CCOC12SN(c3ccc([N+](=O)[O-])cc3Cl)N=C1c1cc(C)ccc1OC2(OCC)c1ccc(Cl)cc1 (racemic)"
  Bound operator: ">"
  IC50 [µg/mL]: 25
- Compound: "CCOC12SN(c3ccc([N+](=O)[O-])cc3Cl)N=C1c1cc(C)ccc1OC2(OCC)c1ccc(OC)cc1 (racemic)"
  Bound operator: ">"
  IC50 [µg/mL]: 25
- Compound: "CCOC12SN(c3ccc([N+](=O)[O-])cc3Cl)N=C1c1cc(C)ccc1OC2(OCC)c1cc(OC)c(OC)cc1Cl (racemic)"
  Bound operator: ">"
  IC50 [µg/mL]: 25
- Compound: "CCOC12SN(c3ccc(S(C)(=O)=O)cc3Cl)N=C1c1cc(C)ccc1OC2(OCC)c1ccc(Cl)cc1 (racemic)"
  Bound operator: "="
  IC50 [µg/mL]: 6
- Compound: "COc1cc(OC)c2c(c1Cl)OC(OC)(c1ccc(Cl)cc1)C1(OC)SN(c3ccc([N+](=O)[O-])cc3Cl)N=C21 (racemic)"
  Bound operator: "="
  IC50 [µg/mL]: 3.2
- Compound: "CCOC12SN(c3ccc([N+](=O)[O-])cc3Cl)N=C1c1c(OC)cc(OC)c(Cl)c1OC2(OCC)c1ccc(OC)cc1 (racemic)"
  Bound operator: "="
  IC50 [µg/mL]: 23.2
- Compound: "CCOC12SN(c3ccc([N+](=O)[O-])cc3Cl)N=C1c1cc(C)ccc1OC2(OCC)c1cc2c(cc1Cl)OCO2 (racemic)"
  Bound operator: ">"
  IC50 [µg/mL]: 25
- Compound: "CCOC12SN(c3ccc([N+](=O)[O-])cc3Cl)N=C1c1c(OC)cc(OC)c(Cl)c1OC2(OCC)c1ccc(C)cc1 (racemic)"
  Bound operator: "="
  IC50 [µg/mL]: 16.8
- Compound: "CCOC12SN(c3ccc(NC(C)=O)cc3Cl)N=C1c1cc(C)ccc1OC2(OCC)c1ccc(Cl)cc1 (racemic)"
  Bound operator: "="
  IC50 [µg/mL]: 1.3
- Compound: "CCOC12SN(c3ccc(NC(C)=O)cc3Cl)N=C1c1ccccc1OC2(OCC)c1ccc(Cl)cc1 (racemic)"
  Bound operator: "="
  IC50 [µg/mL]: 2.2
- Compound: "CCOC12SN(c3ccc(S(C)(=O)=O)cc3Cl)N=C1c1c(OC)cc(OC)c(Cl)c1OC2(OCC)c1ccc(Cl)cc1 (racemic)"
  Bound operator: "="
  IC50 [µg/mL]: 5.6
- Compound: "CCOC12SN(c3ccc([N+](=O)[O-])cc3Cl)N=C1c1c(OC)cc(OC)c(Cl)c1OC2(OCC)c1ccc(Cl)cc1 (racemic)"
  Bound operator: "="
  IC50 [µg/mL]: 6.7
- Compound: "CCOC12SN(c3ccc([N+](=O)[O-])cc3Cl)N=C1c1ccccc1OC2(OCC)c1ccc(OC)cc1 (racemic)"
  Bound operator: "="
  IC50 [µg/mL]: 3.3
- Compound: "O=C1CC(c2ccccc2)Oc2ccccc21 (centres undefined)"
  Bound operator: "="
  IC50 [µg/mL]: 3.4
- Compound: "CCOC12SN(c3ccc(S(C)(=O)=O)cc3Cl)N=C1c1cc(C)ccc1OC2(OCC)c1ccc(OC)cc1 (racemic)"
  Bound operator: "="
  IC50 [µg/mL]: 0.6
- Compound: "CCOC12SN(c3ccc([N+](=O)[O-])cc3Cl)N=C1c1c(OC)cc(OC)c(Cl)c1OC2(OCC)c1ccccc1Cl (racemic)"
  Bound operator: ">"
  IC50 [µg/mL]: 25
- Compound: "CCOC12SN(c3ccc(S(C)(=O)=O)cc3Cl)N=C1c1ccccc1OC2(OCC)c1ccc(OC)cc1 (racemic)"
  Bound operator: "="
  IC50 [µg/mL]: 1.8
- Compound: "CCOC12SN(c3ccc(S(C)(=O)=O)cc3Cl)N=C1c1ccccc1OC2(OCC)c1ccc(Cl)cc1 (racemic)"
  Bound operator: "="
  IC50 [µg/mL]: 2.8
- Compound: "CCOC12SN(c3ccc([N+](=O)[O-])cc3Cl)N=C1c1ccccc1OC2(OCC)c1ccc(Cl)cc1 (racemic)"
  Bound operator: "="
  IC50 [µg/mL]: 2.2
